# SYSTEM_TESTED: 3x2F ZGLS (artificial)
# Sequence (chain, as listed by the source): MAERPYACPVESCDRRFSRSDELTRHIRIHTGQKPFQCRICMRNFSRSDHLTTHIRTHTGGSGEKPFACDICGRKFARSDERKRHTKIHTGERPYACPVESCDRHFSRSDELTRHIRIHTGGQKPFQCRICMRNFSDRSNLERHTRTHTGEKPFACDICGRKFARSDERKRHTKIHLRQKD
# MEASUREMENT_NOTES: EMSA; apparent Kd
# TEST_PARAMETERS: label: 32P
# Method: DNA binding reactions contain the appropriate zinc-finger peptide, binding site and 1 μg competitor DNA (poly dI-dC) in a total volume of 10 μl, which contains: 20 mM Bis-tris propane (pH 7.0), 100 mM NaCl, 5 mM MgCl₂, 50 μM ZnCl₂, 5 mM DTT, 0.1 mg/ml BSA, 0.1% Nonidet P40. […] Dissociation constants are determined in parallel to the calculation of active peptide concentration. […] Samples are run on 7% native polyacrylamide gels and the radioactive signals quantitated by PhosphorImager analysis. […]
Recorded Kd values for a group of binders are listed next.
Respond with the bare value in nM.

bsF (1234/56 in Table 5) (dsDNA) DNA 1: GCGGACTGCGGCGTGGGCG DNA 2: CGCCCACGCCGCAGTCCGC    0.089
bsD (12/34/56) (dsDNA) DNA 1: GCGGACTGCGGCGTTGGGCG DNA 2: CGCCCAACGCCGCAGTCCGC    0.12
bsG (12/3456 in Table 5) (dsDNA) DNA 1: GCGGACGCGGCGTTGGGCG DNA 2: CGCCCAACGCCGCGTCCGC    0.005

Continue with the next binder.
Task: # lookup: Kd of bsE (12//34//56) (dsDNA) DNA 1: GCGGAGTCGCGGCGTCTGGGCG DNA 2: CGCCCAGACGCCGCGACTCCGC
Result: 12
